# experimental-protocol: AUC in Sprague-Dawley rat at 5 mg/kg, po
# Assay type: ADME, organism-based
# measurement-setup: in vivo
assay-readout: AUC (ng·h/mL)
Give a bare numeral; the unit ng·h/mL is implied.

Please review the following examples before continuing.
COc1c(/C=C/c2ccc(NS(C)(=O)=O)cc2)cc(N2CCC(=O)NC2=O)cc1C(C)(C)C 1520
COc1c(C(=O)Nc2ccc(NS(C)(=O)=O)cc2)cc(N2CCC(=O)NC2=O)cc1C(C)(C)C 50
COc1c(/C=C/c2ccc(NS(C)(=O)=O)c(F)c2)cc(-n2ccc(=O)[nH]c2=O)cc1C(C)(C)C 10400
COc1c(/C=C/c2ccc(NS(C)(=O)=O)cc2)cc(-n2ccc(=O)[nH]c2=O)cc1C(C)(C)C 2520
COc1c(/C=C/c2ccc(NS(C)(=O)=O)cc2)cc(-n2cc(F)c(=O)[nH]c2=O)cc1C(C)(C)C 3120

Field: next compound
Reported AUC ( COc1c(C#Cc2ccc(NS(C)(=O)=O)cc2)cc(N2CCC(=O)NC2=O)cc1C(C)(C)C ) = 350

* * *

# experimental-protocol: Inhibition of HCV genotype 1a H77 NS5B RNA dependent RNA polymerase assessed as reduction in [3H]UTP incorporation in to RNA preincubated for 15 mins followed by [3H]UTP addition measured after 3 hrs by microbeta scintillation counting method
# Design: species or system Hepatitis C virus (isolate H77)
In this section, each of the compounds is paired with its reported pIC50.
# log scale: pIC50 equals minus log10 of the concentration in mol/L

Please review the following examples before continuing.
compound	pIC50
COc1c(NC(=O)c2ccc(NS(C)(=O)=O)cc2)cc(N2CCC(=O)NC2=O)cc1C(C)(C)C	8.06
COc1c(CCc2ccc(NS(C)(=O)=O)cc2)cc(N2CCC(=O)NC2=O)cc1C(C)(C)C	7.58
COc1c(C#Cc2ccc(NS(C)(=O)=O)cc2)cc(N2CCC(=O)NC2=O)cc1C(C)(C)C	8.96
COc1c(COc2ccc(NS(C)(=O)=O)cc2)cc(N2CCC(=O)NC2=O)cc1C(C)(C)C	7.00
COc1c(/C=C(\C)c2ccc([N+](=O)[O-])cc2)cc(N2CCC(=O)NC2=O)cc1C(C)(C)C	8.31

Field: next compound
Reported pIC50 ( COc1c(/C=C/c2ccc(NS(C)(=O)=O)cc2)cc(N2CCC(=O)NC2=O)cc1C(C)(C)C ) = 9.52

* * *

# experimental-protocol: Ratio of drug level in dog liver to plasma at 2.5 mg/kg, po after 24 hrs
# Assay type: ADME, organism-based, Canis lupus familiaris
assay-readout: Kp at 24 h

Reported Kp at 24 h ( COc1c(/C=C/c2ccc(NS(C)(=O)=O)cc2)cc(-n2ccc(=O)[nH]c2=O)cc1C(C)(C)C ) = 10

* * *

In this section, each of the compounds is paired with its reported remaining at 0.5 h.
# experimental-protocol: Stability in human liver microsomes assessed as parent compound remaining after 30 mins
# Assay type: ADME, microsome
# measurement-setup: read-out: Stability
Give a bare numeral; the unit % is implied.

COc1c(C#Cc2ccc(NS(C)(=O)=O)cc2)cc(N2CCC(=O)NC2=O)cc1C(C)(C)C 35.8

Field: next compound
Reported remaining at 0.5 h ( COc1c(C(=O)N(C)c2ccc(NS(C)(=O)=O)cc2)cc(N2CCC(=O)NC2=O)cc1C(C)(C)C ) = 64

* * *

# experimental-protocol: AUC (infinity) in human at 320 mg administered as single dose
# Assay type: ADME
# Set-up: dose 320 mg, time infinity
# measurement-setup: in vivo
assay-readout: AUC(0-inf) (ng·h/mL)
Give a bare numeral; the unit ng·h/mL is implied.

Reported AUC(0-inf) ( COc1c(/C=C/c2ccc(NS(C)(=O)=O)cc2)cc(-n2ccc(=O)[nH]c2=O)cc1C(C)(C)C ) = 7200

* * *

# experimental-protocol: Oral bioavailability in dog at 2.5 mg/kg
# Format: ADME, organism-based, Canis lupus familiaris
# measurement-setup: in vivo
assay-readout: bioavailability (%)
Give a bare numeral; the unit % is implied.

Reported bioavailability ( COc1c(/C=C/c2ccc(NS(C)(=O)=O)cc2)cc(-n2ccc(=O)[nH]c2=O)cc1C(C)(C)C ) = 86

* * *

# experimental-protocol: Oral bioavailability in Sprague-Dawley rat at 30 mg/kg
# Assay type: ADME, organism-based
# measurement-setup: in vivo
assay-readout: bioavailability
Answer as a quantity: numeral, then unit.

Reported bioavailability ( COc1c(/C=C/c2ccc(NS(C)(=O)=O)cc2)cc(-n2ccc(=O)[nH]c2=O)cc1C(C)(C)C [ABT-072] ) = 63%

* * *

# experimental-protocol: Aqueous solubility of the compound at pH 7.2
# Format: physicochemical
# measurement-setup: buffer, read-out: solubility
In this section, each of the molecules is paired with its reported solubility.
Give a bare numeral; the unit µM is implied.

Please review the following examples before continuing.
molecule	assay-readout	readout-units	value
COc1c(/C=C/c2ccc(NS(C)(=O)=O)cc2)cc(-n2ccc(=O)[nH]c2=O)cc1C(C)(C)C	solubility	µM	20.7
COc1c(CCc2ccc(NS(C)(=O)=O)cc2)cc(N2CCC(=O)NC2=O)cc1C(C)(C)C	solubility	µM	18.8
COc1c(/C=C/c2ccc(NS(C)(=O)=O)cc2)cc(-n2cc(F)c(=O)[nH]c2=O)cc1C(C)(C)C	solubility	µM	15.5

Reported solubility ( COc1c(C2CC2c2ccc(NS(C)(=O)=O)cc2)cc(N2CCC(=O)NC2=O)cc1C(C)(C)C (stereo not drawn) ) = 18.8

Reported solubility ( COc1c(/C=C/c2ccc(NS(C)(=O)=O)c(F)c2)cc(-n2ccc(=O)[nH]c2=O)cc1C(C)(C)C ) = 15.5

Reported solubility ( COc1c(C#Cc2ccc(NS(C)(=O)=O)cc2)cc(N2CCC(=O)NC2=O)cc1C(C)(C)C ) = 2.3

Reported solubility ( COc1c(NC(=O)c2ccc(NS(C)(=O)=O)cc2)cc(N2CCC(=O)NC2=O)cc1C(C)(C)C ) = 32.8

* * *

# Test system: Rattus norvegicus
# experimental-protocol: AUC in Sprague-Dawley rat at 30 mg/kg, po
# Assay type: ADME, organism-based
# measurement-setup: in vivo
assay-readout: AUC

Reported AUC ( COc1c(/C=C/c2ccc(NS(C)(=O)=O)cc2)cc(-n2ccc(=O)[nH]c2=O)cc1C(C)(C)C [ABT-072] ) = 21600 ng·h/mL

* * *

# experimental-protocol: Cmax in dog at 2.5 mg/kg, po
# Type: ADME, organism-based, Canis lupus familiaris
# Set-up: dose 2.5 mg/kg, route oral
# measurement-setup: in vivo
assay-readout: Cmax (ng/mL)
Give a bare numeral; the unit ng/mL is implied.

Reported Cmax ( COc1c(/C=C/c2ccc(NS(C)(=O)=O)cc2)cc(-n2ccc(=O)[nH]c2=O)cc1C(C)(C)C [ABT-072] ) = 880

* * *

# experimental-protocol: Cmax in human at 160 mg administered as single dose
# Format: ADME
# Set-up: dose 160 mg
# measurement-setup: in vivo
assay-readout: Cmax
Answer as a quantity: numeral, then unit.

Reported Cmax ( COc1c(/C=C/c2ccc(NS(C)(=O)=O)cc2)cc(-n2ccc(=O)[nH]c2=O)cc1C(C)(C)C [ABT-072] ) = 303 ng/mL

* * *

# experimental-protocol: Ratio of drug level in Sprague-Dawley rat liver to plasma at 5 mg/kg, po after 12 hrs
# Assay type: ADME, organism-based
assay-readout: Kp at 12 h
// return just the number, without any unit appended

Reported Kp at 12 h ( COc1c(/C=C/c2ccc(NS(C)(=O)=O)cc2)cc(-n2ccc(=O)[nH]c2=O)cc1C(C)(C)C ) = 71

* * *

# experimental-protocol: Plasma clearance in dog at 2.5 mg/kg, iv
# Type: ADME, organism-based, Canis lupus familiaris
assay-readout: clearance

Reported clearance ( COc1c(/C=C/c2ccc(NS(C)(=O)=O)cc2)cc(-n2ccc(=O)[nH]c2=O)cc1C(C)(C)C ) = 2.5 mL/min/kg

* * *

# experimental-protocol: Oral bioavailability in Sprague-Dawley rat at 5 mg/kg
# Format: ADME, organism-based
# measurement-setup: in vivo
In this section, each of the compounds is paired with its reported bioavailability.
Give a bare numeral; the unit % is implied.

Please review the following examples before continuing.
COc1c(C#Cc2ccc(NS(C)(=O)=O)cc2)cc(N2CCC(=O)NC2=O)cc1C(C)(C)C 14
COc1c(/C=C/c2ccc(NS(C)(=O)=O)c(F)c2)cc(-n2ccc(=O)[nH]c2=O)cc1C(C)(C)C 76
COc1c(/C=C/c2ccc(NS(C)(=O)=O)cc2)cc(-n2cc(F)c(=O)[nH]c2=O)cc1C(C)(C)C 52
COc1c(/C=C/c2ccc(NS(C)(=O)=O)cc2)cc(-n2ccc(=O)[nH]c2=O)cc1C(C)(C)C 44

Field: next compound
Reported bioavailability ( COc1c(/C=C/c2ccc(NS(C)(=O)=O)cc2)cc(N2CCC(=O)NC2=O)cc1C(C)(C)C ) = 18
